protocol.text: yeast display, Sf9 membrane polyspecificity reagent, FACS + sequencing; frameworks hold sequencing errors
measured.parameter: polyreactivity (PSR sort gate)

Please review the entries below; each comes with its answer.
>>> recorded_result("QVQLVESGGGLVQAGGSLSLSCDASGSIFYYYAMGWYRQAPGKEREMVASITSSGGTTSYADSVKGRFTISRDNAKNTVYLQMNSLKPEDTAVYYCNAQVYRYRICYDFWGEGTQVTVSS")
"low polyreactivity"
>>> recorded_result("QVQLVESGGGLVQAGGSHRLSCAASGRTFCKYAMGWYRQAPGKERELVAAITAGGGTKYADSVKGRFTISRDNAKNTVYLQMNSLKPEDTAVYYCAAASGSRRHGYWGQGTQVTVSS")
"high polyreactivity"
>>> recorded_result("QVQLVESGGGLVQAGGSLRLSCAASGSTFKFYAMGWYRQAPGKARELVASITSSSGPTYYADSVKGRFTISRDNAKNTVYLQMNSLKPEDPAVYYCNKDWRRYWLRGDYWGQGTQVTVSS")
"low polyreactivity"
>>> recorded_result("QVQLVESGGGLVQAGGSLRLSCAASGITFFYNAMGWSRQAPGKERELVADITNSGSTYYADSVKVRFTISRDNAKNTVYLQMNSLKPEDTAVYDCAAGQAYDFFVYYPDDYWGQGTQVTVSS")
"low polyreactivity"

# input for lookup
Asked: Can you share its polyreactivity (PSR sort gate)? I mean this sequence: QVQLVESGGGLVQAGGSLRLSCAASGFTFRSYAMGWYRQAPGKERELVAAISSTGRTYYADSVKGRFTISRDNAKNTVYLQMNSLKPEDTAVYYCARNIPVSYYRYGYWGQGTQVTVSS
Given back: high polyreactivity

----------
protocol.text: yeast display, Sf9 membrane polyspecificity reagent, FACS + sequencing; frameworks hold sequencing errors
measured.parameter: polyreactivity (PSR sort gate)

>>> recorded_result("QVQLVESGGGLVQAGGSLRLSCAASGSIFRKYAMGWYRQAPGKERELVARISSGGRTYYADSVKGRFTISRDNAKNTVYLQMNSLKPEDTAVYFCAAAYYQRGRYSWGQGSQVTVSS")
"high polyreactivity"
>>> recorded_result("QVQLEESGGGLVQAGGTLRLSCAASVGIFNYYTMGWYREAPGKERELVAAITRGGSTYYADSVKGRFTISRDNAKNTVYLQMNSLKPEDTAVYYCAAVWRRYDKSPLEGSWGQGTQVTLSS")
"high polyreactivity"
>>> recorded_result("QVQLVESGGGLVQAGGSLRLSCAASGSIFWSNAMGWYRQEPVKEREMVARISTSGGRTYYADSVKGRFTISRDNAKNTVYLQMNSLKPEDTAVYYCADDPYRWYYSTFYYWGQGTQVTVSS")
"high polyreactivity"
>>> recorded_result("QVQLVESGGGLVQAGGSLRLICAASGFIFNAYAMGWYRQAPGKERELVAAISTRGSNTYYADSVKGRFTISRDNAKNTVYLQMNSLKPEDTAVYYCNRVFSYQYKRDYWGQGTQVTVSS")
"high polyreactivity"
>>> recorded_result("QVQLVESGGGLVQAGGSLRLSCAASGRTFYPNTMGWYRQAPGKERELVATITRSGGNTYADSVKGRFTISRDNAKNTVYLQMNSLKREDTAVYYCNADQRRSYWLVSQRYDYWGQGTQVTVSS")
"low polyreactivity"

Asked: Record request: polyreactivity (PSR sort gate) value, item QVQLVESGGGLVQAGGSLRLSCAASGRTLATYAMGWYRQAPGKERELVADISWRGGTTYYADSVKGRFTISRDNAKNTVYLQMNSLKPEDTAVYYCAKRFLFHSYYWGQGSQVTVSS
Given back: high polyreactivity

Asked: What value of polyreactivity (PSR sort gate) has been reported for the following sequence? QVQLVESGGGLVQAGGSIRLSCAASGSTFYIYAMGWYRQAPGQERELVATISWSGGSTYYADSVKGRFTISRDNAKNTVYLQMNSLKPEDTAVYYCAVRPGFGRSLWYGYWGQGTQVTVSS
Given back: high polyreactivity
